Hello, the source for this data is PubChem BioAssay, in case you need it.

Please go through the items and note down their response.
molecular target: Beta-2 adrenergic receptor (Homo sapiens) (UniProt P07550); assay: beta2AR agonists driving receptor internalization, pilot screen, cell-based, FAP fluorogen, flow cytometry, validation set (AID 504459); conditions: Am2.2-beta2AR cells, FAP surface receptor flow cytometry; at 10 µM; stronger effect = higher value;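 also: agonist-driven loss of surface beta2AR via internalization measured by FAP dye flow cytometry; reference of the scale not given here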
Sequence (P07550 whole entry, looked up): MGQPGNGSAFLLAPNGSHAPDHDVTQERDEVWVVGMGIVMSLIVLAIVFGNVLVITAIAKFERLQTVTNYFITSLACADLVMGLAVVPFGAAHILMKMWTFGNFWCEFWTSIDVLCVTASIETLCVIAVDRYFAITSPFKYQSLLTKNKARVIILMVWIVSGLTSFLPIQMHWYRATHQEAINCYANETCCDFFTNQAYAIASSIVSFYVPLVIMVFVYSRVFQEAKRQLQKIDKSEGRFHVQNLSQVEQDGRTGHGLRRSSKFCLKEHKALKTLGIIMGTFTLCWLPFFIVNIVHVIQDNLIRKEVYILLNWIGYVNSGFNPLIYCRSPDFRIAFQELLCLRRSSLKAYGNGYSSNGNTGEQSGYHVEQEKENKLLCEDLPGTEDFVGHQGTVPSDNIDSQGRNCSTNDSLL
Calls of active or inactive are those of the source.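 The calls were made as follows: active = percent response above 42, roughly 3 SD of non-fluorescent test compounds; inactive = the rest.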

[in] Any idea what response was measured for CC[C@]12C=CCN3CCC4(c5cc(Br)c(OC)cc5N(C)C4[C@@](O)(C(=O)OC)[C@@H]1OC(C)=O)C32 (some centres undefined) ?
[out] -10.3% (inactive)

[in] Look up response: CC12CC[C@H]3[C@@H](CCC4(O)C[C@H](O)CCC34/C=N/NC(=O)Cc3ccccc3)C1(O)CCC2C1=CC(=O)OC1 (some centres undefined)
[out] -5.5% (inactive)

[in] Any idea what response was measured for CC1CCC[C@H](O)CCCCCc2cc(O)cc(O)c2C(=O)O1 (some centres undefined) ?
[out] -2.64% (inactive)

[in] So what's the measured response for this one? CCN(CC)C(=O)N[C@H]1C[C@@H]2c3cccc4[nH]cc(c34)C[C@H]2N(C)C1
[out] -25% (inactive)

[in] Recorded response of O=c1[nH]c(=S)n(-c2ccccc2)c(O)c1/C=N/N1CCCCC1c1cccnc1 (centres undefined) , please.
[out] 0.69% (inactive)

[in] For C[C@H]1OC[C@@H](C[N+](C)(C)C)O1 , what is its reported response?
[out] 2.48% (inactive)

[in] Suppose we examine the compound O=C1CC[C@@]2(O)[C@H]3Cc4ccc(O)c5c4[C@@]2(CCN3CC2CC2)[C@H]1O5 ; what response value has been reported?
[out] -8.64% (inactive)

[in] Which value of response has been reported for CC[N+]1(C)CCCC(OC(=O)C(O)(c2ccccc2)c2ccccc2)C1 (centres undefined) in the records?
[out] -15.3% (inactive)

[in] Look up response: O=C1NC(=O)C2(Cc3ccccc3N3CCCC32)C(=O)N1c1ccc(Cl)cc1 (centres undefined)
[out] -5.5% (inactive)

====

Kindly supply the reported inhibition values for the records listed here.
molecular target: Lethal factor (Bacillus anthracis) (UniProt P15917); assay: Lethal factor protease inhibitors, Bacillus anthracis, multiplex microsphere cleavage assay, validation set (AID 588461); conditions: flow cytometry, at 10 µM, stronger effect = higher value
Peptide text beside a SMILES is read from it.
Kindly provide the numeric value in % only, without the unit symbol.

[in] Lab request: please report inhibition under test system Lethal factor (Bacillus anthracis) (UniProt P15917) for COc1cccc(N2C(=O)CC(c3c[nH]c4ccccc34)C2=O)c1 (stereo not given)
[out] -2

[in] Lab request: please report inhibition under test system Lethal factor (Bacillus anthracis) (UniProt P15917) for CCCCNc1ccc(C(=O)OCCN(C)C)cc1
[out] 2.7

[in] Request body: readout inhibition, system Lethal factor (Bacillus anthracis) (UniProt P15917), query CC(C)C[C@H](NC(=O)[C@@H]1CCCN1C(=O)[C@@H](N)Cc1ccc(O)cc1)C(=O)NCC(N)=O (H-YPLG-NH2) . Return the value.
[out] 1

[in] Requested read-out inhibition, target or system Lethal factor (Bacillus anthracis) (UniProt P15917), entry CCS(=O)(=O)Nc1cc(OC)c(OC)cc1Cc1nccc2cc(OC)c(OC)cc12
[out] -0.6

[in] Record NS(=O)(=O)c1cc2c(cc1Cl)NC(CSCc1ccccc1)=NS2(=O)=O : what is its inhibition with Lethal factor (Bacillus anthracis) (UniProt P15917)?
[out] -2.3

[in] Entry COc1cccc(NC(=O)C2CC(=O)OC23CCOC(C)(C)C3)c1 (stereo not given) , system Lethal factor (Bacillus anthracis) (UniProt P15917): what inhibition was measured?
[out] -8.2

[in] Checklist item: inhibition tested on Lethal factor (Bacillus anthracis) (UniProt P15917), entry CC(Cc1ccccc1)NCC(=O)Nc1cc(N(C)C)nc2ccccc12 (stereo not given) , value?
[out] 0.6

[in] // map O=C(Nc1c(C(=O)O)[nH]c2ccccc12)NC1CCCCC1 to recorded inhibition (system: Lethal factor (Bacillus anthracis) (UniProt P15917))
[out] -2.2

[in] Request - read-out inhibition | tested on Lethal factor (Bacillus anthracis) (UniProt P15917) | compound CCOC(=O)C1NN=C(C(=O)c2ccccc2)C1c1ccc(Cl)cc1 (stereo not given)
[out] 3.2

[in] Reported inhibition for Lethal factor (Bacillus anthracis) (UniProt P15917), given OCCC1CN(Cc2ccccc2-c2ccco2)CCN1C1CCCC1 (stereo not given) ?
[out] 5.3

====

Kindly state inhibition for each of the entries shown.
biological target: Lethal factor (Bacillus anthracis) (UniProt P15917); assay: Lethal factor protease inhibitors, Bacillus anthracis, multiplex microsphere cleavage assay, validation set (AID 588461); settings: flow cytometry, at 10 µM, stronger effect = higher value
Give just the numeric value; % need not be written.

[in] Data request, read-out inhibition, for COc1ccc(CN2CCCCC2C(=O)Nc2ccc(OC)c(OCC(C)C)c2)cc1OC (stereo not drawn)
[out] -1.3

[in] inhibition for COc1ccc(C2C(=O)c3ccccc3C2=O)cc1 ?
[out] -3.8

[in] For the molecule shown here, O=C(O)/C=C/c1ccc(O)c(O)c1 , give the reported inhibition.
[out] -1.7

[in] Tell me the measured inhibition of CC(C[N+](C)(C)C)OC(N)=O (stereo not drawn) , please.
[out] 6.6

[in] What inhibition value was documented for this molecule, COc1ccc(-c2noc(-c3ccccc3-c3ccccc3)n2)cc1 ?
[out] -1.9

[in] Suppose we examine the molecule CCOC(=O)[C@H]1O[C@@H]1C(=O)N[C@@H](CC(C)C)C(=O)NCCC(C)C ; what inhibition value has been reported?
[out] -2.8

[in] Returns the measured inhibition for the input molecule. Input: Cc1ccc(S(=O)(=O)NC(=O)Nc2cc(C)ccc2F)cc1
[out] -4.1

[in] Recorded inhibition for CCS(=O)(=O)CCn1c([N+](=O)[O-])cnc1C , please?
[out] 3.7

[in] Dear colleague, I am looking for the recorded inhibition of the following molecule: COc1ccc(C(=O)/C=C/c2ccc(OC(=O)c3cc(OC)c(OC)c(OC)c3)cc2)cc1
[out] -5

[in] Reported inhibition for Cc1cccc(NC(=O)c2cc3ccccc3o2)c1 : what is it?
[out] -2.2

[in] Name the reported inhibition value associated with the molecule COC(=O)c1cc(C(=O)NCCC(C)C)cc([N+](=O)[O-])c1
[out] 2.1

[in] Looking for the measured inhibition of CC1(C)CC(=O)C(C2=NC(C)(C)Cc3ccccc32)=C(O)C1 , can you help?
[out] -0.4

[in] Give the measured inhibition of Cn1cc(CN2CCN(CCO)CC2)c(-c2ccc(Oc3ccccc3)cc2)n1 .
[out] -1.5

[in] I have this molecule here, COc1ccc2[nH]c(=O)c(CNC3CCCCC3)cc2c1 , and I need its recorded inhibition.
[out] -0.1

[in] Reported inhibition for CC(C)(C)NCC(O)COc1ccccc1C(=O)CCc1ccccc1 (stereo not drawn) : what is it?
[out] -4.9

[in] I'd like to know its inhibition. The molecule in question is CCOC(=O)C1C2C=CC3(CN(c4ccc(Cl)c(F)c4)C(=O)C13)O2 (stereo not drawn)
[out] 6.8

[in] Query (molecule): COc1ccc2c(c1OC)C(C1c3c(cc4c(c3OC)OCO4)CCN1C)OC2=O (stereo not drawn) ; field requested: inhibition
[out] 3.5

[in] Reported inhibition, molecule C[C@]12CCC(=O)C=C1CC[C@@H]1[C@@H]2CC[C@@]2(C)[C@H]1CC[C@]2(O)C(=O)CO : ____
[out] -1.7

[in] Any idea what its inhibition is? The molecule is CC(=O)OC(C)C[N+](C)(C)C (stereo not drawn)
[out] -5.8

[in] Given the molecule Cc1ccc(C(=O)O)cc1NC(=O)c1cccs1 , what is its reported inhibition?
[out] 2

[in] Which inhibition is listed for CC(=O)[C@@]1(O)CC[C@H]2[C@@H]3CCC4=CC(=O)CC[C@]4(C)[C@H]3CC[C@@]21C ?
[out] -5.7

[in] I would be grateful if you could share the reported inhibition for Oc1ccc(COCc2ccccc2)c2cccnc12 .
[out] -3.1

[in] Name the reported inhibition value associated with the molecule O=c1nc2cccc3c2=c(/c1=C(\O)c1ccccc1)c1ccccc1c3=O
[out] -0.8

[in] Entry NC(=O)c1c(-c2ccccc2)oc2ccc(O)cc12 : reported inhibition = ?
[out] -5.1

[in] What value of inhibition has been reported for the following molecule? O=C(/C=C/c1ccco1)N1CCN(c2ccccc2)CC1
[out] -0.6

[in] Need inhibition, item CC(CCc1ccccc1)NCC(O)c1ccc(O)c(C(N)=O)c1 (stereo not drawn)
[out] 0.1

[in] Return reported inhibition; argument: CCCNC(=O)NS(=O)(=O)c1ccc(Cl)cc1
[out] -1

[in] Using the record for COCCOC(=O)C1=C(C)NC(C)=C(C(=O)OC(C)C)C1c1cccc([N+](=O)[O-])c1 (stereo not drawn) , report its inhibition.
[out] -4.8

[in] Recorded inhibition for Cc1ccc(CSCC(=O)N2CCCC2)cc1 , please?
[out] 0

[in] Item under review: O=C(O)CCn1cnc2ccccc2c1=O . Reported inhibition?
[out] -3.5

[in] Entry under review: Cc1cnc(C(=O)N2CCCC(C(=O)c3ccc(Cl)cc3C)C2)cn1 (stereo not drawn) . Reported inhibition?
[out] -0.9

[in] # get_value(readout='inhibition', item= CN=C1c2cc3cc(OC)ccc3n2CCN1C )
[out] -0.1

[in] Sample Clc1ccc(Cn2c(CN3CCCC3)nc3ccccc32)cc1 — what was its inhibition?
[out] -0.3

[in] Recorded inhibition for COc1cc(C(=O)NCCCCCC(=O)O)cc(OC)c1OC , please?
[out] -13.3

[in] Name the recorded inhibition for CCOc1ccc(N2C(=O)NC(=O)/C(=C\c3cc(OC)c(OC)cc3[N+](=O)[O-])C2=O)cc1 .
[out] 4.2

[in] Data request, read-out inhibition, for Cc1[nH]c2ccccc2c1C(=O)C(=O)NCc1ccco1
[out] -5.5

[in] Name the recorded inhibition for CC(=Nc1ccccc1)C1=C(O)CCCC1=O .
[out] -5.7

[in] # inhibition lookup, item COc1cc(Cl)cc2c1Sc1ccccc1/C2=C/CCN(C)C
[out] -16.6

[in] I have this molecule here, Cc1nc(NCc2ccco2)c(C#N)c2c1COC(C)(C)C2 , and I need its recorded inhibition.
[out] -0.5

[in] So what does the record say about inhibition for Cn1c([N+](=O)[O-])cnc1COC(N)=O ?
[out] -1.2

[in] Look up inhibition for this molecule: CC(C)(C)N(Cc1ccccc1)C(=O)c1ccc(Br)o1
[out] 11.8

[in] Please look up its inhibition: C[C@H]1CCCC(=O)CCCCCc2cc(O)cc(O)c2C(=O)O1
[out] 4.1

[in] Dear colleague, I am looking for the recorded inhibition of the following molecule: CCOc1ccc(C(=O)C(C)=O)c(OCC)c1
[out] 7.8

[in] Consider the molecule shown here: Cc1ccc2[nH]c3c(c2c1)CCNC3=O What is its recorded inhibition?
[out] -6.6

[in] Look up inhibition for this molecule: Cc1oncc1C(=O)Nc1ccc(C(F)(F)F)cc1
[out] 2.2

[in] Fill blank: measured inhibition of the molecule CC1(C)CC(NCc2ccccc2)CCO1 (stereo not drawn) is ____.
[out] 1.1

[in] // returns reported inhibition for input CCN(CC)CCNC(=O)c1cc(S(C)(=O)=O)ccc1OC
[out] 4.7

[in] Which inhibition is reported for this molecule? COc1ccc2c(CCNC(=O)c3ccc([N+](=O)[O-])cc3)c[nH]c2c1
[out] -5
